# Protocol Text: Probe fluorescence ratio response to linolenic acid relative to ADIFAB2
# Format: binding
# Details: response relative to ADIFAB2
Reported Property: DR/DR LNA
Lab note: record just the number, no unit beside it.

Previously resolved entries follow.
117K, 72A (protein, listed as Rattus norvegicus, PEPTIDE (1)...(131) wild-type rat intestinal fatty acid binding protein) AFDGTWKVDRNENYEKFMEKMGINVVKRKLGAHDNLKLTITQEGNKFTVKESSNFRNIDVVFELGVDFAYSAADGTELTGTWTMEGNKLVGKFKRVDNGKELIAVREISGNELIQTKTYEGVEAKRIFKKE = 0.37
34C, 72A (protein, listed as Rattus norvegicus, PEPTIDE (1)...(131) wild-type rat intestinal fatty acid binding protein) AFDGTWKVDRNENYEKFMEKMGINVVKRKLGAHCNLKLTITQEGNKFTVKESSNFRNIDVVFELGVDFAYSAADGTELTGTWTMEGNKLVGKFKRVDNGKELIAVREISGNELIQTYTYEGVEAKRIFKKE = 0.33
49D, 72A (protein, listed as Rattus norvegicus, PEPTIDE (1)...(131) wild-type rat intestinal fatty acid binding protein) AFDGTWKVDRNENYEKFMEKMGINVVKRKLGAHDNLKLTITQEGNKFTDKESSNFRNIDVVFELGVDFAYSAADGTELTGTWTMEGNKLVGKFKRVDNGKELIAVREISGNELIQTYTYEGVEAKRIFKKE = 0.296
38H1, 72A (protein, listed as Rattus norvegicus, PEPTIDE (1)...(131) wild-type rat intestinal fatty acid binding protein) AFDGTWKVDRNENYEKFMEKMGINVVKRKLGAHDNLKHTITQEGNKFTVKESSNFRNIDVVFELGVDFAYSAADGTELTGTWTMEGNKLVGKFKRVDNGKELIAVREISGNELIQTYTYEGVEAKRIFKKE = 1.19
31R1, 72A (protein, listed as Rattus norvegicus, PEPTIDE (1)...(131) wild-type rat intestinal fatty acid binding protein) AFDGTWKVDRNENYEKFMEKMGINVVKRKLRAHDNLKLTITQEGNKFTVKESSNFRNIDVVFELGVDFAYSAADGTELTGTWTMEGNKLVGKFKRVDNGKELIAVREISGNELIQTYTYEGVEAKRIFKKE = 0.44

Turning now to a further molecule:
Data request: Given 78F 102I 72A (protein, listed as Rattus norvegicus, PEPTIDE (1)...(131) wild-type rat intestinal fatty acid binding protein) AFDGTWKVDRNENYEKFMEKMGINVVKRKLGAHDNLKLTITQEGNKFTVKESSNFRNIDVVFELGVDFAYSAADGTEFTGTWTMEGNKLVGKFKRVDNGKEIIAVREISGNELIQTYTYEGVEAKRIFKKE , state its recorded DR/DR LNA.
Data returned: 2.322
